- ASSAY COMMENT: Hepatocyte stability, human
- Assay type: in vitro ADME
- CONDITION DETAILS: cryopreserved human hepatocytes in suspension, read-out: estimated half-life
TEST READOUT: half-life at 3 μM (h)

>>> df
                                   compound       test_readout  test_value
0  O=C(O)c1ccc(-n2nnnc2SCC(=O)c2ccc([N+](=O)[O-])cc2)cc1 [Hakin-1]  half-life at 3 μM        2.33

* * *

- ASSAY COMMENT: Hepatocyte stability, mouse
- Format: in vitro ADME
- CONDITION DETAILS: cryopreserved mouse hepatocytes in suspension, read-out: half-life (T½)
TEST READOUT: half-life at 3 μM

                               given_smiles  test_value
0  O=C(O)c1ccc(-n2nnnc2SCC(=O)c2ccc([N+](=O)[O-])cc2)cc1    5.92 min
